- system.tested: beta-catenin (human)
- Sequence (B6V8E6 146-665 limits assumed): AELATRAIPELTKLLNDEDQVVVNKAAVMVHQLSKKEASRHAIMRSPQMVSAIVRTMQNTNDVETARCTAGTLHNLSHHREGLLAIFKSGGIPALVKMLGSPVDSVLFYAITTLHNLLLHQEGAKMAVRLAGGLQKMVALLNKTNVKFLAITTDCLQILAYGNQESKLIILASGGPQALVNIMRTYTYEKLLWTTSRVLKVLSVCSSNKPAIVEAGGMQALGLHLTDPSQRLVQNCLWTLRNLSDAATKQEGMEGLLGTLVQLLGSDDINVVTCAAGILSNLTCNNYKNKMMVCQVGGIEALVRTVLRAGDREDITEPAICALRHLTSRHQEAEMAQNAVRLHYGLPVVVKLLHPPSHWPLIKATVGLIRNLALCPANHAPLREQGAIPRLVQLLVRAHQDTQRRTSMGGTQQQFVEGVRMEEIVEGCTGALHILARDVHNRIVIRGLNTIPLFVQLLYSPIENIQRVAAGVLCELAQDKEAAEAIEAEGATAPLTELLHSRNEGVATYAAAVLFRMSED
- experiment.notes: fluorescence polarization; bin >50 nM
pIC50: −log10 of the molar value. *1 amine or outer side, *2 acyl side, *3 side chain or, on linkers, in order; H or OH if unused. Primed or numbered codes have the meaning given here. [ ]: non-standard residue; d: D form. PyrS2(6) = (S)-3-amino-1-((pent-4-en-1-yloxy)carbonyl)pyrrolidine-3-carboxylic acid, stapled with another olefin-containing amino acid residue through the olefin group, O=C(OCCCC=[*:3])N1CC[C@@](N[*:1])(C(=O)[*:2])C1; B5(4) = 2-amino-2-(pent-4-en-1-yl)hept-6-enoic acid, stapled through each of its two olefin groups with other olefin-containing amino acid residues, O=C(C(CCCC=[*:3])(CCCC=[*:4])N[*:1])[*:2]; Phe(3-COOH) = N[C@@H](Cc1cccc(C(=O)O)c1)C(=O)O; Phe(2-Cl) = N[C@@H](Cc1ccccc1Cl)C(=O)O; Bta = N[C@@H](Cc1csc2ccccc12)C(=O)O; αAllylPro = C=CC[C@@]1(C(=O)O)CCCN1; tBuAla = CC(C)(C)C[C@H](N)C(=O)O
assay.metric: pIC50

Ac-[αAllylPro]D[tBuAla][B5(4)]D[Phe(3-COOH)]K(isophthalate)AFL[PyrS2(6)][Phe(2-Cl)][Bta]K-NH2 (not fully specified (residue 6, bridges); printed as Ac-PL3-Asp-Npg-B5-Asp-3COOHF-[isophthalate]-Lys-Ala-Phe-Leu-PyrS2-2ClF-BztA-Lys-NH2; also: isophthalate on Lys7 side chain is a staple, partner not given here) [I-50]    > 6.70
